Test system: H. flu
Format: cell-based, H. influenza
Cond: H. flu

Compound	Unit Of Measure	MIC (μg/mL) H. flu
COC1C=COC2(C)Oc3c(C)c(O)c4c(=O)c(c5oc6cc(N7CC(C)CC(C)C7)cc(O)c6nc-5c4c3C2=O)NC(=O)C(C)=CC=CC(C)C(O)C(C)C(O)C(C)C(O)C1C (stereo not drawn)	µg/mL	0.12
COC1C=COC2(C)Oc3c(C)c(O)c4c(=O)c(c5oc6cc(N7CC8CCCN(C(C)=O)C8C7)cc(O)c6nc-5c4c3C2=O)NC(=O)C(C)=CC=CC(C)C(O)C(C)C(O)C(C)C(OC(C)=O)C1C (stereo not drawn)	µg/mL	0.25
COCCOC(=O)NC1CCN(c2cc(O)c3nc4c5c6c7c(C)c(O)c5c(=O)c(c-4oc3c2)NC(=O)C(C)=CC=CC(C)C(O)C(C)C(O)C(C)C(OC(C)=O)C(C)C(OC)C=COC(C)(O7)C6=O)CC1 (stereo not drawn)	µg/mL	2

###

System: H. flu
Type: cell-based, H. influenza
Cond: H. flu
Attribute: MIC (μg/mL) H. flu

Compound	Test Target	MIC (μg/mL) H. flu (µg/mL)
CO[C@H]1/C=C/O[C@@]2(C)Oc3c(C)c(O)c4c(=O)c(c5oc6cc(N7CCC(N)CC7)cc(O)c6nc-5c4c3C2=O)NC(=O)/C(C)=C\C=C\[C@H](C)[C@H](O)[C@@H](C)[C@@H](O)[C@@H](C)[C@H](OC(C)=O)[C@@H]1C	H. flu	1
COC1C=COC2(C)Oc3c(C)c(O)c4c(=O)c(c5oc6cc(N7CCCC7)c(C)c(C)c6nc-5c4c3C2=O)NC(=O)C(C)=CC=CC(C)C(O)C(C)C(O)C(C)C(O)C1C (stereo not drawn)	H. flu	1
CO[C@H]1/C=C/O[C@@]2(C)Oc3c(C)c(O)c4c(=O)c(c5oc6cc(N7CCC(N8CCOCC8)CC7)cc(O)c6nc-5c4c3C2=O)NC(=O)/C(C)=C\C=C\[C@H](C)[C@H](O)[C@@H](C)[C@@H](O)[C@@H](C)[C@H](O)[C@@H]1C	H. flu	1
COC1C=COC2(C)Oc3c(C)c(O)c4c(=O)c(c5oc6cc(N7CCCC7)c(F)cc6nc-5c4c3C2=O)NC(=O)C(C)=CC=CC(C)C(O)C(C)C(O)C(C)C(O)C1C (stereo not drawn)	H. flu	0.12
COC1C=COC2(C)Oc3c(C)c(O)c4c(=O)c(c5oc6cc(N7CC8C(N)C8C7)cc(O)c6nc-5c4c3C2=O)NC(=O)C(C)=CC=CC(C)C(O)C(C)C(O)C(C)C(OC(C)=O)C1C (stereo not drawn)	H. flu	0.25
CCOC(=O)N1CCCC2CN(c3cc(O)c4nc5c6c7c8c(C)c(O)c6c(=O)c(c-5oc4c3)NC(=O)C(C)=CC=CC(C)C(O)C(C)C(O)C(C)C(OC(C)=O)C(C)C(OC)C=COC(C)(O8)C7=O)CC21 (single isomer, unassigned)	H. flu	0.5
COCCN1CCN(c2cc(O)c3nc4c5c6c7c(C)c(O)c5c(=O)c(c-4oc3c2)NC(=O)C(C)=CC=CC(C)C(O)C(C)C(O)C(C)C(O)C(C)C(OC)C=COC(C)(O7)C6=O)CC1 (stereo not drawn)	H. flu	0.25
CO[C@H]1/C=C/O[C@@]2(C)Oc3c(C)c(O)c4c(=O)c(c5oc6c(F)c(N7CCN(CC(C)C)CC7)ccc6nc-5c4c3C2=O)NC(=O)/C(C)=C\C=C\[C@H](C)[C@H](O)[C@@H](C)[C@@H](O)[C@@H](C)[C@H](O)[C@@H]1C	H. flu	0.5
COC1C=COC2(C)Oc3c(C)c(O)c4c(=O)c(c5sc6cc(N7CCN8CCCC8C7)ccc6nc-5c4c3C2=O)NC(=O)C(C)=CC=CC(C)C(O)C(C)C(O)C(C)C(O)C1C (stereo not drawn)	H. flu	0.12
